Biological target: scFv PX4-4
Experiment: Fluorescence polarization / anisotropy titration of fluorescein-labelled compounds with PX4-4
Assay type: binding, human
Conditions: re-synthesized and purified compounds, FP titration with PX4-4; read-out: Kd-re
Numbered stars: 1 amine (or outer) side, 2 acyl side, 3 side chain; on linkers, the order of the positions; unused ones are H or OH. Square brackets hold non-standard residues; d marks the D form. Peptide text beside a SMILES is read from it. X1 = COc1ccc(CN([C@@H](C)C(=O)[*:2])[*:1])cc1OC; Gly(Nα-4-F-phenethyl) = O=C(O)CNCCc1ccc(F)cc1; X2 = C[C@@H](C(=O)[*:2])N(CCCCN)[*:1]; Gly(N-propargyl) = C#CCNCC(=O)O; NFurfurylGly = O=C(O)CNCc1ccco1; Nlys = NCCCCNCC(=O)O
Kd values, listed per item
observation.type: Kd

molecule	target	recorded.measurement
C#CCN(CC(=O)N(CCCCN)CC(=O)N(CC(N)=O)Cc1ccco1)C(=O)CN(CCCCN)C(=O)CN(CCc1ccc(F)cc1)C(=O)[C@H](C)N(CCCCN)C(=O)[C@H](C)NCc1ccc(OC)c(OC)c1 [A7] (H-[X1][X2][Gly(Nα-4-F-phenethyl)][Nlys][Gly(N-propargyl)][Nlys][NFurfurylGly]-NH2)	scFv PX4-4	25.4 µM
[2H]C([2H])([2H])[C@@]([2H])(NCc1ccc(OC)c(OC)c1)C(=O)N(CCCCN)[C@@H](C)C(=O)N(CCc1ccc(F)cc1)[C@@]([2H])(C(=O)N(CCCCN)CC(=O)N(CC#C)CC(=O)N(CCCCN)CC(=O)N(CC(N)=O)Cc1ccco1)C([2H])([2H])[2H]	scFv PX4-4	65.2 µM
[2H]C([2H])([2H])[C@@]([2H])(NCc1ccc(OC)c(OC)c1)C(=O)N(CCCCN)[C@@]([2H])(C(=O)N(CCc1ccc(F)cc1)[C@@]([2H])(C(=O)N(CCCCN)CC(=O)N(CC#C)CC(=O)N(CCCCN)CC(=O)N(CC(N)=O)Cc1ccco1)C([2H])([2H])[2H])C([2H])([2H])[2H]	scFv PX4-4	233 µM
[2H]C([2H])([2H])[C@]([2H])(C(=O)N(CCc1ccc(F)cc1)CC(=O)N(CCCCN)CC(=O)N(CC#C)CC(=O)N(CCCCN)CC(=O)N(CC(N)=O)Cc1ccco1)N(CCCCN)C(=O)[C@H](C)NCc1ccc(OC)c(OC)c1	scFv PX4-4	19.1 µM

---

Target: scFv PX4-4
Experiment: Fluorescence polarization / anisotropy titration of fluorescein-labelled compounds with PX4-4
Assay type: binding, human
Conditions: semi-quantitative; compounds cleaved from single beads, 96-well microwell format, FP titration with PX4-4; read-out: Kd-96
Numbered stars: 1 amine (or outer) side, 2 acyl side, 3 side chain; on linkers, the order of the positions; unused ones are H or OH. Square brackets hold non-standard residues; d marks the D form. Peptide text beside a SMILES is read from it. X1 = COc1ccc(CN([C@@H](C)C(=O)[*:2])[*:1])cc1OC; Gly(Nα-4-F-phenethyl) = O=C(O)CNCCc1ccc(F)cc1; X3 = COc1ccc(CN(CC(=O)[*:2])[*:1])cc1OC; X2 = C[C@@H](C(=O)[*:2])N(CCCCN)[*:1]; Gly(N-propargyl) = C#CCNCC(=O)O; NFurfurylGly = O=C(O)CNCc1ccco1; Nlys = NCCCCNCC(=O)O

compound	Kd (µM)
C#CCN(CC(=O)N(CCCCN)CC(=O)N(CC(N)=O)Cc1ccco1)C(=O)CN(CCCCN)C(=O)CN(CCc1ccc(F)cc1)C(=O)CN(CCCCN)C(=O)CNCc1ccc(OC)c(OC)c1 [A41] (H-[X3][Nlys][Gly(Nα-4-F-phenethyl)][Nlys][Gly(N-propargyl)][Nlys][NFurfurylGly]-NH2)	113
[2H]C([2H])([2H])[C@@]([2H])(NCc1ccc(OC)c(OC)c1)C(=O)N(CCCCN)[C@@H](C)C(=O)N(CCc1ccc(F)cc1)[C@@]([2H])(C(=O)N(CCCCN)CC(=O)N(CC#C)CC(=O)N(CCCCN)CC(=O)N(CC(N)=O)Cc1ccco1)C([2H])([2H])[2H]	43.2
[2H]C([2H])([2H])[C@]([2H])(C(=O)N(CCc1ccc(F)cc1)CC(=O)N(CCCCN)CC(=O)N(CC#C)CC(=O)N(CCCCN)CC(=O)N(CC(N)=O)Cc1ccco1)N(CCCCN)C(=O)[C@H](C)NCc1ccc(OC)c(OC)c1	27.5
[2H]C([2H])([2H])[C@@]([2H])(NCc1ccc(OC)c(OC)c1)C(=O)N(CCCCN)[C@@]([2H])(C(=O)N(CCc1ccc(F)cc1)[C@@]([2H])(C(=O)N(CCCCN)CC(=O)N(CC#C)CC(=O)N(CCCCN)CC(=O)N(CC(N)=O)Cc1ccco1)C([2H])([2H])[2H])C([2H])([2H])[2H]	117
C#CCN(CC(=O)N(CCCCN)CC(=O)N(CC(N)=O)Cc1ccco1)C(=O)CN(CCCCN)C(=O)CN(CCc1ccc(F)cc1)C(=O)[C@H](C)N(CCCCN)C(=O)[C@H](C)NCc1ccc(OC)c(OC)c1 [A7] (H-[X1][X2][Gly(Nα-4-F-phenethyl)][Nlys][Gly(N-propargyl)][Nlys][NFurfurylGly]-NH2)	40.9
